biological target: Mitogen-activated protein kinase 1 (Homo sapiens, UniProt P28482); test: Enzymatic Assay: Compounds were tested in an enzymatic assay using human ERK-2 (Mitogen Activated Kinase 1), recombinantly expressed as an n-terminal 6-His fusion protein in E. coli and corresponding to aa 8-360. […] Test compounds were diluted in DMSO in 3-fold serial dilutions at 100x final concentrations.
Sequence (P28482 whole entry, the tested form may be a part): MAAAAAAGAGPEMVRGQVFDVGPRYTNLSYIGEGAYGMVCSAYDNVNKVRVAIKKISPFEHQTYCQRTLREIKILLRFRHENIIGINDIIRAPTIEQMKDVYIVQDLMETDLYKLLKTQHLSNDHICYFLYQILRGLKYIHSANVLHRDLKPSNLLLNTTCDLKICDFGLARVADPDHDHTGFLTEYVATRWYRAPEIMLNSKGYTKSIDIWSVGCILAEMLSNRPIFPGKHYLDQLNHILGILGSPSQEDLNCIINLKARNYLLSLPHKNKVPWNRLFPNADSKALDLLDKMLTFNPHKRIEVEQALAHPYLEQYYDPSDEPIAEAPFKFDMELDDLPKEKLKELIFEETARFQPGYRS
OUTCOME MEASURE: IC50 (nM)

a. CC1CC(Nc2ncc3c(n2)CN(C(=O)N[C@H](CO)c2ccc(Cl)c(F)c2)CC3)CCO1 (some centres not stated)
b. CC(C)Nc1ncc2c(n1)CN(C(=O)N[C@@H](c1ccc(C(F)(F)F)c(F)c1)c1cccc(=O)[nH]1)CC2
q: Given the listed items, does a or b have the lesser reported IC50? Provide the label of your selected option as the answer.
a: a

These measurements were taken from ChEMBL document CHEMBL3886249.
